Source: paper PMC2756588

Molecular target: T1, Sla1-3, P32790
T1 sequence (P32790 344-424, looked up): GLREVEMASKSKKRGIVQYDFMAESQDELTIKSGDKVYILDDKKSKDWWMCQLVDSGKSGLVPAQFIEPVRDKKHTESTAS
Assay: SPOT array
Settings: median of control spots 5475
Quick rule for you: SPOT intensity under 20 gets true, anything else gets false.

Decide: SPOT intensity of ISNFVPPNLPMRRFK strictly below 20?
true

Decide: SPOT intensity of GSKSGPPPRPKKPST strictly below 20?
true

Decide: SPOT intensity of KTKQQKPAIPQKKSF strictly below 20?
true

Decide: SPOT intensity of HKVLRPFLLRRLKKD strictly below 20?
false

Decide: SPOT intensity of HRRRRVFSIPSLKSI strictly below 20?
false

Decide: SPOT intensity of STKKPRPPVKSKPKH strictly below 20?
true

Decide: SPOT intensity of VNFRRIPTGPDSPPT strictly below 20?
true

Decide: SPOT intensity of YVRRRPRVRLEPLLS strictly below 20?
false

Decide: SPOT intensity of GRSRLFPHSPLGRSS strictly below 20?
true

Decide: SPOT intensity of YLTRPLPSTPNEDSR strictly below 20?
true

Decide: SPOT intensity of RRLRDKYKLPIVDAD strictly below 20?
false

Decide: SPOT intensity of GRLRPKRIAPWHLIQ strictly below 20?
false

Decide: SPOT intensity of QTREPNEPPPPSPAM strictly below 20?
true

Decide: SPOT intensity of MARRRLPDRPPNGIG strictly below 20?
false

Decide: SPOT intensity of RVTRKRPREPKSTND strictly below 20?
false

Decide: SPOT intensity of SRQAIPPPVPNRPGG strictly below 20?
true

Decide: SPOT intensity of VQKRKLPLPGSIASA strictly below 20?
true

Decide: SPOT intensity of ERPKRRAPPPVPKKP strictly below 20?
false

Decide: SPOT intensity of RRSKSLPITPKSIFN strictly below 20?
false

Decide: SPOT intensity of KRRAPPPVPKKPSSR strictly below 20?
false

Decide: SPOT intensity of RVRKTHVPASKRPSG strictly below 20?
true

Decide: SPOT intensity of QTMRQAPKRPDADVA strictly below 20?
false

Decide: SPOT intensity of RPVPPPPPMRTTTEG strictly below 20?
true

Decide: SPOT intensity of RAPPPVPKKPSSRIA strictly below 20?
false

Decide: SPOT intensity of SGVRLPAPPPPPRRG strictly below 20?
true

Decide: SPOT intensity of KRKRFNLLLPKPYLT strictly below 20?
false

Decide: SPOT intensity of LSKRLPLRFPEHTSS strictly below 20?
false

Decide: SPOT intensity of PPPPPPPPPPLPQSL strictly below 20?
true

Decide: SPOT intensity of VPVAPPPPPASLGQS strictly below 20?
true
